# measurement_target: T1, biotinylated-Lys63 linked Di-Ub (UniProt P0CG47 1-76, isopeptide bond between the C-terminal Gly of the distal Ub and Lys63 of the proximal Ub; biotin tag at the N-terminus of the distal Ub)
# T1 construct: mature; Immobilised on streptavidin plates or on the SPR CAPture chip; also called K63-linked Di-Ub; biotin-Lys63 linked Di-Ub
# experimental_protocol: fluorescence-based competitive assay: unlabeled peptide, 5.0 molar equiv., pre-bound to biotinylated Lys63-linked Di-Ub on a streptavidin plate, then competed with CP1-FITC (1 equiv.); signal change relative to 1 (CP1), Y=[1-(a/b)]x100
# Procedure: Streptavidin-coated microplate (96 well plate) was washed with HEPES buffer (50 Mm HEPES, 150 Mm NaCl, pH 7.30) and then in each well incubated 1 μg of biotinylated-Lys63-linked Di-Ub in 100 μl of the same buffer at RT. for 30 min. […] After releasing bounded peptides on treatment with 6 M Guanidinium chloride (Gnd·HCl), the fluorescence values were measured (λex=480 nm and λem=525 nm). These values were normalized and then calculated the relative change in binding with the following formula: […]
Starred links: 1 amine or outer side, 2 acyl side, 3 side chain; linkers in the order of their positions; H or OH if unused. Positions of bridges follow the written chain, without caps; N, C: chain ends. No end group written: not given here. *: point of attachment. mClBz = N-terminal group cyclised as a benzyl thioether to a Cys, O=C(c1cccc(C[*:3])c1)[*:2]; C10F9 = S-aryl group from decafluorobiphenyl, Fc1c(F)c(F)c(-c2c(F)c(F)c(*)c(F)c2F)c(F)c1F; mBz = 3-(methylene)benzoyl on the N-terminal amine, O=C(c1cccc(C[*:3])c1)[*:2]

| binder | binding result |
| --- | --- |
| mBz-LLCWIGSSKNPYILCG-NH2 (thioether N-15; SMILES CC[C@H](C)[C@@H]1NC(=O)[C@H](Cc2c[nH]c3ccccc23)NC(=O)[C@H](CS)NC(=O)[C@H](CC(C)C)NC(=O)[C@H](CC(C)C)NC(=O)c2cccc(c2)CSC[C@@H](C(=O)NCC(N)=O)NC(=O)[C@H](CC(C)C)NC(=O)[C@H]([C@@H](C)CC)NC(=O)[C@H](Cc2ccc(O)cc2)NC(=O)[C@@H]2CCCN2C(=O)[C@H](CC(N)=O)NC(=O)[C@H](CCCCN)NC(=O)[C@H](CO)NC(=O)[C@H](CO)NC(=O)CNC1=O, also called CP1-I3C; cyclic peptide 4) [4] | binds |
| mClBz-C(C10F9)LIWIGSSKNPYILCG (thioether N-15) [cyclic peptide 21, CP1-L1C-C10F9] | binds |
| mBz-LLICIGSSKNPYILCG-NH2 (thioether N-15; SMILES CC[C@H](C)[C@@H]1NC(=O)[C@H](CS)NC(=O)[C@H]([C@@H](C)CC)NC(=O)[C@H](CC(C)C)NC(=O)[C@H](CC(C)C)NC(=O)c2cccc(c2)CSC[C@@H](C(=O)NCC(N)=O)NC(=O)[C@H](CC(C)C)NC(=O)[C@H]([C@@H](C)CC)NC(=O)[C@H](Cc2ccc(O)cc2)NC(=O)[C@@H]2CCCN2C(=O)[C@H](CC(N)=O)NC(=O)[C@H](CCCCN)NC(=O)[C@H](CO)NC(=O)[C@H](CO)NC(=O)CNC1=O, also called CP1-W4C; cyclic peptide 5) [5] | binds |

Sourced from patent US20250099534A1
